# Target Entity: Recombinant Human ENPP-1 Protein (Homo sapiens (Human), UniProt P22413)
# Sequence (P22413 whole entry): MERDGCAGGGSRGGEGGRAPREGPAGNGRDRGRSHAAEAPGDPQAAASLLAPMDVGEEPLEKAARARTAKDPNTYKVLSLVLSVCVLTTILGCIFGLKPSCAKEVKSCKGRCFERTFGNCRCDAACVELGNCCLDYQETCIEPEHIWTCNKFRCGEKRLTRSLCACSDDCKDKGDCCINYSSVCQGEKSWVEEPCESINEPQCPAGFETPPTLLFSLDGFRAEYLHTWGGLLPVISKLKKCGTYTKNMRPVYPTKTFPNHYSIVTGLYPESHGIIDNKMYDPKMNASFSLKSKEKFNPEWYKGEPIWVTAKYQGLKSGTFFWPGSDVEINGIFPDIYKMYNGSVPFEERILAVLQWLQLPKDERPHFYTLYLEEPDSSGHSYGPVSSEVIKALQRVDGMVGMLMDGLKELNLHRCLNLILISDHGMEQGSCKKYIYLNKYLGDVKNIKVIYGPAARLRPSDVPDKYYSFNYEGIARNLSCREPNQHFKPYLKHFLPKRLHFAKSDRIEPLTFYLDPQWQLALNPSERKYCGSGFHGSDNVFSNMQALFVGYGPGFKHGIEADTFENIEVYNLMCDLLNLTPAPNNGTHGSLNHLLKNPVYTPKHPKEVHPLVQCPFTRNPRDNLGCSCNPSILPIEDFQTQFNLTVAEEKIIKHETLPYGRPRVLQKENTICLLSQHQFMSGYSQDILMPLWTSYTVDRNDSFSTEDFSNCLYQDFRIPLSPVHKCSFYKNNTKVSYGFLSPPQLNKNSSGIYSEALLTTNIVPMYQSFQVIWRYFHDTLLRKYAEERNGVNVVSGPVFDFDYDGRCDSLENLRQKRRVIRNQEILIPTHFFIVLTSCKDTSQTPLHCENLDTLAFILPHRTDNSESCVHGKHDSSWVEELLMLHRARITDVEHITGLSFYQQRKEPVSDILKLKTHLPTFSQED
# Measurement Protocol: ENPP1 Inhibition Assay
# Assay type: biochemical
# Measurement Setup: substrate thymidine 5′-monophosphate p-nitrophenol ester, absorbance at 405 nm
pIC50: −log10 of the molar value.

Compound Structure String: COc1ccc(NC(=O)CSc2nc3cc(C#N)ncc3[nH]2)cc1O
pIC50: 6.75

Compound Structure String: Cc1cncc2[nH]c(SCC(=O)Nc3ccc4c(c3)OCO4)nc12
pIC50: 4.30

Compound Structure String: COc1ccc(NC(=O)CSc2nc3cc(Cl)ncc3[nH]2)cc1N
pIC50: 5.22

Compound Structure String: COc1ccc(NC(=O)CS(=O)(=O)c2nc3cnc(Cl)cc3[nH]2)cc1F
pIC50: 4.52

Compound Structure String: COc1ccc(NC(=O)CSc2nc3c(C)c(C#N)ncc3[nH]2)cc1O
pIC50: 7.10

----------
# Target Entity: Recombinant Human ENPP-1 Protein (Homo sapiens (Human))
# Measurement Protocol: ENPP1 Inhibition Assay
# Measurement Setup: substrate thymidine 5′-monophosphate p-nitrophenol ester, absorbance at 405 nm
# Description: 1. ENPP1 Inhibition Assay […] An eight point serial dilution of drugs was prepared in 10× in assay buffer with the final assay concentrations starting at 10 μM, 3 μM, 1 μM, 0.3 μM . . . […] The reaction was quantified by measuring absorbance at 405 nm using the Envision. IC50 values are determined using GraphPad Prism 5 software. […]

Compound: COc1ccc(NC(=O)CSc2nc3c(C)c(C#N)ncc3[nH]2)cc1F [Compound 93]
Target Entity: Recombinant Human ENPP-1 Protein (Homo sapiens (Human))
IC50: 0.224 µM

Compound: COc1ccc(NC(=O)CSc2nc3cnc(Cl)cc3[nH]2)cc1F [Compound 27]
Target Entity: Recombinant Human ENPP-1 Protein (Homo sapiens (Human))
IC50: 0.4 µM

Compound: O=C(CSc1nc2cnc(Cl)cc2[nH]1)Nc1ccc(O)cc1 [Compound 33]
Target Entity: Recombinant Human ENPP-1 Protein (Homo sapiens (Human))
IC50: 7.92 µM

Compound: COc1ccc(NC(=O)CSc2nc3cnc(C(F)(F)F)cc3[nH]2)cc1F [Compound 38]
Target Entity: Recombinant Human ENPP-1 Protein (Homo sapiens (Human))
IC50: 0.487 µM

Compound: COc1ccc(NC(=O)CSc2nc3cnc(C(F)(F)F)cc3[nH]2)cc1O [Compound 31]
Target Entity: Recombinant Human ENPP-1 Protein (Homo sapiens (Human))
IC50: 0.181 µM

Compound: COc1c(F)cc(NC(=O)CSc2nc3cnc(C(F)(F)F)cc3[nH]2)cc1F [Compound 44]
Target Entity: Recombinant Human ENPP-1 Protein (Homo sapiens (Human))
IC50: 10.2 µM

Compound: COc1cc(NC(=O)CSc2nc3cc(Cl)ncc3[nH]2)ccc1O [Compound 22]
Target Entity: Recombinant Human ENPP-1 Protein (Homo sapiens (Human))
IC50: 1.16 µM

Compound: COc1ccc(NC(=O)CSc2nc3cc(C#N)ncc3[nH]2)cc1OC [Compound 68]
Target Entity: Recombinant Human ENPP-1 Protein (Homo sapiens (Human))
IC50: 0.114 µM

Compound: COc1ccc(NC(=O)C(C)Sc2nc3cnc(C(F)(F)F)cc3[nH]2)cc1O (centres unmarked) [Compound 42]
Target Entity: Recombinant Human ENPP-1 Protein (Homo sapiens (Human))
IC50: 11.3 µM

Compound: O=C(CSc1nc2cc(C(F)(F)F)ncc2[nH]1)Nc1ccc(OC(F)(F)F)c(O)c1 [Compound 61]
Target Entity: Recombinant Human ENPP-1 Protein (Homo sapiens (Human))
IC50: 22.6 µM

Compound: COc1ccc(NC(=O)CSc2nc3c(C)cncc3[nH]2)cc1O [Compound 16]
Target Entity: Recombinant Human ENPP-1 Protein (Homo sapiens (Human))
IC50: 2.29 µM

Compound: O=C(CSc1nc2cc(Cl)ncc2[nH]1)Nc1nc2ccccc2s1 [Compound 62]
Target Entity: Recombinant Human ENPP-1 Protein (Homo sapiens (Human))
IC50: 10.9 µM

Compound: COc1ccc(NC(=O)CSc2nc3c(C)c(C#N)ncc3[nH]2)cc1OC [Compound 77]
Target Entity: Recombinant Human ENPP-1 Protein (Homo sapiens (Human))
IC50: 0.265 µM

Compound: O=C(CSc1nc2cnc(Cl)cc2[nH]1)Nc1cccc(O)c1 [Compound 25]
Target Entity: Recombinant Human ENPP-1 Protein (Homo sapiens (Human))
IC50: 7.93 µM

Compound: COc1cc(NC(=O)CSc2nc3c(C)cncc3[nH]2)ccc1O [Compound 18]
Target Entity: Recombinant Human ENPP-1 Protein (Homo sapiens (Human))
IC50: 8.37 µM

Compound: O=C(CSc1nc2cnc(C(F)(F)F)cc2[nH]1)Nc1ccc(F)c(O)c1 [Compound 45]
Target Entity: Recombinant Human ENPP-1 Protein (Homo sapiens (Human))
IC50: 0.651 µM

Compound: N#Cc1cc2nc(SCC(=O)Nc3ccc(F)c(O)c3)[nH]c2cn1 [Compound 69]
Target Entity: Recombinant Human ENPP-1 Protein (Homo sapiens (Human))
IC50: 0.216 µM

Compound: COc1ccc(NC(=O)CSc2nc3cc(Cl)ncc3[nH]2)cn1 [Compound 72]
Target Entity: Recombinant Human ENPP-1 Protein (Homo sapiens (Human))
IC50: 3.29 µM

Compound: COc1ccc(NC(=O)C(C)Sc2nc3cnc(Cl)cc3[nH]2)cc1OC (centres unmarked) [Compound 14]
Target Entity: Recombinant Human ENPP-1 Protein (Homo sapiens (Human))
IC50: 3.52 µM

Compound: COc1ccc(NC(=O)CSc2nc3cnc(Cl)c(C)c3[nH]2)cc1O [Compound 49]
Target Entity: Recombinant Human ENPP-1 Protein (Homo sapiens (Human))
IC50: 0.667 µM

----------
Quick reference: IC50 of the listed items.
# Target Entity: Recombinant Human ENPP-1 Protein (Homo sapiens (Human), UniProt P22413)
# Measurement Protocol: ENPP1 Inhibition Assay
# Measurement Setup: substrate thymidine 5′-monophosphate p-nitrophenol ester, absorbance at 405 nm
# Protocol: 1. ENPP1 Inhibition Assay […] An eight point serial dilution of drugs was prepared in 10× in assay buffer with the final assay concentrations starting at 10 μM, 3 μM, 1 μM, 0.3 μM . . . […] The reaction was quantified by measuring absorbance at 405 nm using the Envision. IC50 values are determined using GraphPad Prism 5 software. […]
Endpoint Name: IC50 (µM)

Compound: COc1cc2nc(NC(=O)CSc3nc4cc(Cl)ncc4[nH]3)sc2cc1OC [Compound 54]
Operator: =
Quantitative Readout: 5.73
--
Compound: COc1ccc(NC(=O)CSc2nc3cc(Cl)ncc3[nH]2)cc1OCC(F)(F)F [Compound 89]
Operator: =
Quantitative Readout: 11.3
--
Compound: COc1ccc(NC(=O)CSc2nc3cnc(Cl)c(C)c3[nH]2)cc1OC [Compound 52]
Operator: =
Quantitative Readout: 1.14
--
Compound: COc1ccc(NC(=O)CSc2nc3cc(Cl)ncc3[nH]2)nc1OC [Compound 87]
Operator: =
Quantitative Readout: 1.98
--
Compound: O=C(CSc1nc2cc(Cl)ncc2[nH]1)Nc1ccc(OC(F)F)cc1 [Compound 40]
Operator: =
Quantitative Readout: 33.6
--
Compound: O=C(CSc1nc2cc(Cl)ncc2[nH]1)Nc1ccc2c(c1)OCO2 [Compound 7]
Operator: >
Quantitative Readout: 50
--
Compound: Cc1c(C#N)ncc2[nH]c(SCC(=O)Nc3ccc(F)c(O)c3)nc12 [Compound 79]
Operator: =
Quantitative Readout: 6.52
--
Compound: COc1ccc(NC(=O)CSc2nc3cnc(Cl)c(C)c3[nH]2)cc1F [Compound 50]
Operator: =
Quantitative Readout: 5.63
--
Compound: COc1cnc(NC(=O)CSc2nc3cc(Cl)ncc3[nH]2)cc1OC [Compound 85]
Operator: =
Quantitative Readout: 0.266
--
Compound: COc1ccc(NC(=O)CSc2nc3cc(Cl)ncc3[nH]2)cc1OC [Compound 3]
Operator: =
Quantitative Readout: 0.58
--
Compound: COc1cc(NC(=O)CSc2nc3cc(Cl)ncc3[nH]2)ccc1OC(F)F [Compound 29]
Operator: =
Quantitative Readout: 1.16
--
Compound: O=C(CSc1nc2cnc(Cl)cc2[nH]1)Nc1ccc(F)c(O)c1 [Compound 37]
Operator: =
Quantitative Readout: 0.17
--
Compound: COc1ccc(NC(=O)CSc2nc3c(C)cncc3[nH]2)cc1OC [Compound 9]
Operator: =
Quantitative Readout: 4.46
--
Compound: Cc1c(Cl)ncc2nc(SCC(=O)Nc3ccc(F)c(O)c3)[nH]c12 [Compound 51]
Operator: =
Quantitative Readout: 1.27
--
Compound: COc1ccc(NC(=O)CSc2nc3cnc(Cl)cc3[nH]2)cc1OC(F)(F)F [Compound 35]
Operator: =
Quantitative Readout: 40.7
--
Compound: COc1ccc(NC(=O)CSc2nc3cc(Cl)ncc3[nH]2)cc1[N+](=O)[O-] [Compound 83]
Operator: =
Quantitative Readout: 4.55
--
Compound: COc1ccc(NC(=O)CSc2nc3cc(Cl)ncc3[nH]2)cc1O [Compound 21]
Operator: =
Quantitative Readout: 0.086
--
Compound: COc1nc(NC(=O)CSc2nc3c(C)c(C#N)ncc3[nH]2)ccc1O [Compound 96]
Operator: =
Quantitative Readout: 2.06
